This section presents molecules with their documented Emax values.
Species on record: Cavia porcellus
assaySummary: Maximum contractile response relative to that elicited by carbachol in guinea pig ileum
Assay type: functional
I'd appreciate a reply containing only the number, no unit.

Known Emax results, listed for orientation:
molecule	Emax
CC(=O)N1CCCC1C#CCN(C)C (configuration not stated)	0
CC(=O)N1CCCC1C#CCN1CCCC1 (configuration not stated)	0
CC(=O)N1CCCC1C#CC[N+](C)(C)C.[I-] (configuration not stated)	0.8
CN(C)CC#CC1CCC(=O)N1C (configuration not stated)	0
CC(=O)N(C)C(C)C#CCN1CCCC1 (configuration not stated)	0.83

Qu. Entry CC(=O)N(C(C)=O)C(C)C#CCN1CCCC1 (configuration not stated) : reported Emax = ?
Ans. 0

Qu. Fill blank: measured Emax of the molecule CC(=O)N1C(=O)CCC1C#CCN1CCCC1 (configuration not stated) is ____.
Ans. 0

* * *

A collection of compounds and their measured Tremorolytic dose
Organism: Mus musculus
assaySummary: Antimuscarinic activity in intact mice was determined as the dose required to double the dose of oxotremorine inducing a predetermined tremor intensity.
Type: functional
Provide the reading as a plain figure in µM/kg.

These recorded examples may help you get a feel for the data.
compound	Tremorolytic dose [µM/kg]
CC(=O)N(C)C(C)C#CCN1CCCC1 (configuration not stated)	0.6
CC(=O)N1CCCC1C#CCN(C)C (configuration not stated)	119
CN1C(=O)CCC1C#CCN1CCCC1 (configuration not stated)	78.3
CC(=O)N1C(=O)CCC1C#CCN1CCCC1 (configuration not stated)	3.5
CC(=O)N1C(=O)CCC1C#CCN(C)C (configuration not stated)	160

Please turn your attention to the following entry.
Qu. I would be grateful if you could share the reported Tremorolytic dose for CC(=O)N(C(C)=O)C(C)C#CCN1CCCC1 (configuration not stated) .
Ans. 3.2

Taken from ChEMBL document CHEMBL1124658.
